Assay: protein stability index of a GFP-peptide fusion (yeast GPS) (PSI 1-4); higher = more stable; sorted into four equal gates, so the index is relative within each strain
Details: pdr5∆
EXPERIMENTAL READOUT: protein stability index

The following sequences have reported results that may help.
item_sequence="VASQSPHATATEKEPVP [SNF6]" experimental_readout="protein stability index" recorded_result=3.06
item_sequence="EAHPTKVKNFGVWVRYD [RPL20A]" experimental_readout="protein stability index" recorded_result=2.96
item_sequence="GGFTNLTSQAPQTTQMF [YDL088C/ASM4]" experimental_readout="protein stability index" recorded_result=3.09
item_sequence="FLESSKEIDPSQTTQLA [FAS2]" experimental_readout="protein stability index" recorded_result=3
item_sequence="VDIEYTRGRNIIMHKDV [RET1]" experimental_readout="protein stability index" recorded_result=2.55

# input sequence: IVLSKAASALDEKEKQL [SIR4] ; wanted: its protein stability index
3.03

Form field: reported protein stability index of QWYTLQSQLNVTLSQLV [MED8]
2.15

Return reported protein stability index; argument: YMHDTELNYFVGCKNLE [GRR1]
2.78

# protein stability index lookup, item EQLKEQMEDMEESINEF [SMC4]
3.2

If you can, please state the reported protein stability index value of VIKRLEASTVPWGDYLQ [BRR2] .
1.24

What does the record list as protein stability index for IRVLFKENGQLIGAATK [SEC65] ?
2.12

I'd like to know its protein stability index. The sequence in question is RGHRIRREFKQYSLERN [PRP8]
2.61

# lookup: protein stability index of LSNLSKDIKANLSSNVN [YCS4]
3.03

Reported protein stability index, sequence IRALQPKLKEGALHFVQ [YIL149C/MLP2] : ____
2.06

Entry LVGRLRKCETQKQWDDI [YCS4] has what protein stability index?
1.74

Please look up its protein stability index: VSLSQLLFIVGQVAIKT [YCS4]
2.27

Name the reported protein stability index value associated with the sequence KVSPSMCGVIVKQYNKK [SIN4]
2.98

====

Assay: protein stability index of a GFP-peptide fusion (yeast GPS) (PSI 1-4); higher = more stable; sorted into four equal gates, so the index is relative within each strain
Conditions: ubr1∆
Each entry below carries its reported protein stability index.
Lab note: jot the number down without any unit.

item_sequence="MTTEDPDSNHLSSETGI [SRB4]" recorded_result=3.04
item_sequence="QRIIADLSADKPTSPFI [SRB8]" recorded_result=2.94

For the sequence KCPGCLNITTVFSHAQT [RPS27A] , what protein stability index is on record?
2.99

Given the entry INELTLLVQKRFKYAPG [RPS3] , report its measured protein stability index.
2.96

// returns reported protein stability index for input EEGRAIPGEYITYALSG [RPS21B]
2.96

// protein stability index lookup, key: EGLIIDTDKLPIKNRTS [SIN4]
2.94

Give the measured protein stability index of GFSTGIGDTIADGPTMR [RPO21] .
2.99

====

Assay: protein stability index of a GFP-peptide fusion (yeast GPS) (PSI 1-4); higher = more stable; sorted into four equal gates, so the index is relative within each strain
Conditions: doa10∆
// reported protein stability index for each item listed

item_sequence="NTEEKAELQSNLQVELL [YGL100W/SEH1]" recorded_result=3.06
item_sequence="RSQDVRSTDRDRVKVIE [CSL4]" recorded_result=3.01
item_sequence="DVECIKAKSHFTNIISR [YJL039C/NUP192]" recorded_result=3.04
item_sequence="EDHDVHSNESSNETIGE [IRR1]" recorded_result=3
item_sequence="LLHEMTQTYMQMIELNR [GRR1]" recorded_result=2.18
item_sequence="DSSGVNDLHHSEKKYAE [RPN3]" recorded_result=2.69
item_sequence="IKIEPSADDDVNNGNIP [SIR3]" recorded_result=2.12
item_sequence="LANLIRDALRNIKNTNE [RRP6]" recorded_result=2.37
item_sequence="KLYDKTENDIKALQSIG [RPT4]" recorded_result=2.65
item_sequence="AGLGKTNELWARLAILK [YGR119C/NUP57]" recorded_result=2.38

Look up protein stability index: SEIARTYLLKNDLVKAR [RPN9]
3.29

Recorded protein stability index for EEKEEENGDEDEDEDED [QCR6] , please?
3.68

Which protein stability index is listed for GTPPMLHQRTHKQVYPL [DSN1] ?
2.52

So what's the measured protein stability index for this one? WLEEYHPKLIKNKSGKI [FAS1]
1.59

Record request: protein stability index value, item LNDTTEKSKALESEIAS [SMC2]
3.53

Would you mind telling me what protein stability index value was observed for HEVQYQESSSTLSTHST [SIN4] ?
2.68

Would you kindly share the measured protein stability index for GRVYRPLFIVEDDESLG [RPB2] ?
1.71

# get_value(readout='protein stability index', item= DRFKPNLDIAKDLIRTD [MED4] )
3.38

Give its protein stability index value. Item: LVIKSGKYTLGYKSTVK [RPL30]
2.75

For VSIVKLDTQLITLLPSS [SNF12] , what is its reported protein stability index?
1.73

Entry under review: DSIGSTRVEGSGGGDSE [RPT6] . Reported protein stability index?
2.6

protein stability index lookup needed for MSNVVQARDNSQVFGVA [RPS14A] , thanks.
1.89

Value lookup for protein stability index; key = SDLGTVVFDSNEAPPKT [YMR153W/NUP53]
3.17

Can you look up the measured protein stability index of DVKVIMATNKIETLDPA [RPT2] for me?
3.17

Requested read-out: protein stability index. Entry: AASALDEKEKQLAVANE [SIR4]
2.92
